Molecular target: Hepatitis C virus serine protease, NS3/NS4A (Hepatitis C virus, UniProt A3EZI9+D2K2A8)
Sequence (D2K2A8 whole entry): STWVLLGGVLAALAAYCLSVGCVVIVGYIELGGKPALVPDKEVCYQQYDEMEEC
Sequence (A3EZI9 whole entry): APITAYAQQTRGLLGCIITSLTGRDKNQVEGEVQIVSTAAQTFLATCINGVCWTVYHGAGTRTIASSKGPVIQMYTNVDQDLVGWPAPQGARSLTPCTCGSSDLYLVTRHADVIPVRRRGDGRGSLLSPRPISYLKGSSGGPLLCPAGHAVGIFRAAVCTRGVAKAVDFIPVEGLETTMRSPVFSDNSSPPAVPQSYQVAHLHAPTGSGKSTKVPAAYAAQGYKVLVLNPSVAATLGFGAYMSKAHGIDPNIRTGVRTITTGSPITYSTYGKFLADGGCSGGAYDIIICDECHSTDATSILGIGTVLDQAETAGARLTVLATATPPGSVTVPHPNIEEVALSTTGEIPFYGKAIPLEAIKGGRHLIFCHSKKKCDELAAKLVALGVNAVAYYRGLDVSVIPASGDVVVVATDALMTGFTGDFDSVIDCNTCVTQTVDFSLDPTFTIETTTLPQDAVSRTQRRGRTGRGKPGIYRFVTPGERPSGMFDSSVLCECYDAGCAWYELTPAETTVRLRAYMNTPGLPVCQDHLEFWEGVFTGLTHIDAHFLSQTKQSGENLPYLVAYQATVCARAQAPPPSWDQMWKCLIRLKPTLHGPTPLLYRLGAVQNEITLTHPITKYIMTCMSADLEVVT
Assay: The apparent Ki value against NS3-4Apep protease
Conditions: read-out: Ki app
QUANTITY: Ki (nM)
// note: answer is a bare numeric in nM

# input # lookup: Ki of CC[C@H](C)[C@H](NC(=O)C(CC(=O)O)NC(=O)[C@H](CC(=O)O)NC(C)=O)C(=O)N[C@H](C(=O)N1CCC[C@H]1C(=O)N[C@@H](CS)C(=O)O)C(C)C (single isomer, unassigned)
# output 600

====

Molecular target: NS3 (Hepatitis C virus)
Sequence (A3EZJ3 whole entry): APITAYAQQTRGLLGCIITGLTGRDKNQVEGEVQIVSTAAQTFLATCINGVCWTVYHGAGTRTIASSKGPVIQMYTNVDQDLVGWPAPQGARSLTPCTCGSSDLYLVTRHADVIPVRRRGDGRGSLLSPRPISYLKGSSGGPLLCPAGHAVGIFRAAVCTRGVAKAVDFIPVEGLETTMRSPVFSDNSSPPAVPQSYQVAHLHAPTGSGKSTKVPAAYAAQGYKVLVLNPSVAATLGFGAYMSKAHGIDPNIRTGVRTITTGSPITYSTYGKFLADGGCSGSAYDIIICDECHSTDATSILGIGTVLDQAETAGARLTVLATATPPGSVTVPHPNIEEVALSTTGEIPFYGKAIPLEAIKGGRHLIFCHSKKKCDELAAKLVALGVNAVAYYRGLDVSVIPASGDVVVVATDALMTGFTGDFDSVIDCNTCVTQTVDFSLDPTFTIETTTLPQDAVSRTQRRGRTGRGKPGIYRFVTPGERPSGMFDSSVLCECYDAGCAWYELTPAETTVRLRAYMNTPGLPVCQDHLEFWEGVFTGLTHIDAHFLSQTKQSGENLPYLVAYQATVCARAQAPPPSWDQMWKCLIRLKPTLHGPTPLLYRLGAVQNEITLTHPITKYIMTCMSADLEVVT
Test: Inhibitory activity against NS3-4A pep protease
Design: species or system Hepacivirus hominis
QUANTITY: IC50 (µM)
// note: answer is a bare numeric in µM

SUBSTANCE	RESULT_UNITS	IC50
Ac-DDIVPM-OH	µM	500

# input # lookup: IC50 of `Ac-DDIVPA-OH`
# output 710

# input What about this substance? `Ac-DDAVPC-OH`
# output 580

# input What about this substance? `Ac-DAIVPC-OH`
# output 140

# input What about this substance? `H-GEAGDDIVPC-OH`
# output 52

# input What about this substance? `H-DDIVPC-OH`
# output 71

# input What about this substance? `Ac-DDIAPC-OH`
# output 890

# input What about this substance? `Ac-DDIVAC-OH`
# output 93

====

Target: Hepatitis C virus serine protease, NS3/NS4A (Hepatitis C virus, UniProt A3EZI9+D2K2A8)
Assay: The apparent Ki value against NS3-4Apep protease
Assay type: protein-complex assay, Hepacivirus hominis
Details: read-out: Ki app
QUANTITY: Ki (µM)
// note: answer is a bare numeric in µM

# input # lookup: Ki of `H-DDIVPC-OH`
# output 14

Hey, just so you know, these numbers are from ChEMBL document CHEMBL1130869.
